# target.or.system: enzymes responsible for the enkephalins hydrolysis
# experiment: inhibition of the enzymes responsible for the enkephalins hydrolysis
measured.attribute: pIC50
Convention used: pIC50 is expressed as -log10 of the molar concentration.

Problem: System enzymes responsible for the enkephalins hydrolysis. Read-out pIC50. Item CCC(O)(c1ccc2cc(OC)ccc2c1)C(C)CN(C)C (stereo not shown) . Report value.
Solution: 2.40

----------
# experiment: acute toxicity in the mouse
# Format: in vivo
# run.parameters: in vivo, ip, i.p. administration
Provide the reported LD50 of each item.
Write the number in mg/kg without appending the unit.

Problem: Please give the documented LD50 of CCC(O)(c1ccc2cc(O)ccc2c1)C(C)CN(C)C (centres unmarked)
Solution: 56.2

Problem: Identify measured LD50 corresponding to CCC(O)(c1ccc2cc(OC)ccc2c1)C(C)CN(C)C (centres unmarked)
Solution: 65.8
